Reference source: patent US20090192084A1

The entries below are paired with their reported spectrum count.
- TEST TARGET: p97-Myc
- Sequence (Q01853 2-806): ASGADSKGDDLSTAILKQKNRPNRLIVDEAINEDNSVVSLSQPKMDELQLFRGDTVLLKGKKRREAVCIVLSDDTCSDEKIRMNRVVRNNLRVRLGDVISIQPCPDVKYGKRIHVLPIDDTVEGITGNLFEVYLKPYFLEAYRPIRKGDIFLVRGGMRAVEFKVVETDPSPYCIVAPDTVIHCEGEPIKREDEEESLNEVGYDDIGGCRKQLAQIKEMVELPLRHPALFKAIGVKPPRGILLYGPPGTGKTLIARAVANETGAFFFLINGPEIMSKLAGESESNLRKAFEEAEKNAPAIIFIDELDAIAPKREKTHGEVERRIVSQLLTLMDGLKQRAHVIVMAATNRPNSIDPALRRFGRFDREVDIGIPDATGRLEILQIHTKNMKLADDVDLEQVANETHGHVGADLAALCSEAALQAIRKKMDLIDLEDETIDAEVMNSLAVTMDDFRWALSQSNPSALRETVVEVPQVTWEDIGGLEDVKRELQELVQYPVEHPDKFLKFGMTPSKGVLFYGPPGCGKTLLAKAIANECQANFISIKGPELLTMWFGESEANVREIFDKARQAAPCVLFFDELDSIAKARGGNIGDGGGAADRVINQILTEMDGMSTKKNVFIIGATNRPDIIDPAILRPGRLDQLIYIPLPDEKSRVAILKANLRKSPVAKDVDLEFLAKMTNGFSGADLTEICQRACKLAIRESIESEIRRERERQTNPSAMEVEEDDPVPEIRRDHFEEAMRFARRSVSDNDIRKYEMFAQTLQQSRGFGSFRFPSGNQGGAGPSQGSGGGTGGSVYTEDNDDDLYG
- METHOD SUMMARY: p97-Myc co-IP, 293 cells, MudPIT MS

>  <BINDER>
endogenous UBXD4 (protein, human, UniProt P68543 1-259, looked up) MKDVDNLKSIKEEWVCETGSDNQPLGNNQQSNCEYFVDSLFEEAQKVSSKCVSPAEQKKQVDVNIKLWKNGFTVNDDFRSYSDGASQQFLNSIKKGELPSELQGIFDKEEVDVKVEDKKNEICLSTKPVFQPFSGQGHRLGSATPKIVSKAKNIEVENKNNLSAVPLNNLEPITNIQIWLANGKRIVQKFNITHRVSHIKDFIEKYQGSQRSPPFSLATALPVLRLLDETLTLEEADLQNAVIIQRLQKTASFRELSEH

>  <spectrum count>
5

$$$$
>  <BINDER>
endogenous SAKS1 (protein, human, UniProt Q04323 2-297, looked up) AELTALESLIEMGFPRGRAEKALALTGNQGIEAAMDWLMEHEDDPDVDEPLETPLGHILGREPTSSEQGGLEGSGSAAGEGKPALSEEERQEQTKRMLELVAQKQREREEREEREALERERQRRRQGQELSAARQRLQEDEMRRAAEERRREKAEELAARQRVREKIERDKAERAKKYGGSVGSQPPPVAPEPGPVPSSPSQEPPTKREYDQCRIQVRLPDGTSLTQTFRAREQLAAVRLYVELHRGEELGGGQDPVQLLSGFPRRAFSEADMERPLQELGLVPSAVLIVAKKCPS

>  <spectrum count>
2

$$$$
>  <BINDER>
endogenous p47 (protein, human, UniProt Q9UNZ2 1-370, looked up) MAAERQEALREFVAVTGAEEDRARFFLESAGWDLQIALASFYEDGGDEDIVTISQATPSSVSRGTAPSDNRVTSFRDLIHDQDEDEEEEEGQRFYAGGSERSGQQIVGPPRKKSPNELVDDLFKGAKEHGAVAVERVTKSPGETSKPRPFAGGGYRLGAAPEEESAYVAGEKRQHSSQDVHVVLKLWKSGFSLDNGELRSYQDPSNAQFLESIRRGEVPAELRRLAHGGQVNLDMEDHRDEDFVKPKGAFKAFTGEGQKLGSTAPQVLSTSSPAQQAENEAKASSSILIDESEPTTNIQIRLADGGRLVQKFNHSHRISDIRLFIVDARPAMAATSFILMTTFPNKELADESQTLKEANLLNAVIVQRLT

>  <spectrum count>
153

$$$$
>  <BINDER>
endogenous p37 (protein, human, UniProt Q14CS0 2-331, looked up) AEGGGPEPGEQERRSSGPRPPSARDLQLALAELYEDEVKCKSSKSNRPKATVFKSPRTPPQRFYSSEHEYSGLNIVRPSTGKIVNELFKEAREHGAVPLNEATRASGDDKSKSFTGGGYRLGSSFCKRSEYIYGENQLQDVQILLKLWSNGFSLDDGELRPYNEPTNAQFLESVKRGEIPLELQRLVHGGQVNLDMEDHQDQEYIKPRLRFKAFSGEGQKLGSLTPEIVSTPSSPEEEDKSILNAVVLIDDSVPTTKIQIRLADGSRLIQRFNSTHRILDVRNFIVQSRPEFAALDFILVTSFPNKELTDESLTLLEADILNTVLLQQLK

>  <spectrum count>
7

$$$$
